Measured values drawn from the nanobody polyreactivity screen of Harvey et al. (2022) for this set.

protocol notes: yeast display, Sf9 membrane polyspecificity reagent, FACS + sequencing; frameworks hold sequencing errors
assay metric: polyreactivity (PSR sort gate)

INSERT INTO results (sequence_code, assay_metric, readout_value) VALUES
  ('QVQLVESGGGLVQAGGSLRLSCAASGRIFGYYAMGSYRQAPGKERELVAAITRGGSTNYADSVKGRFTISRDNAKNTVYLQMNSLKPEDTAVYYCNARRYRPRSASYDYWGQGTQVTVSS', 'polyreactivity (PSR sort gate)', 'high polyreactivity'),
  ('QVQLVESGGGLVQAGGSLRLSCAASGRTLYRYAMGWYRQAPGKERELVAAIRSGGRTNYADSVKGRFTISRDNAKNTVYLLMNSLKPEDTAVYYCAARTLRYPSTYDYWGQGTQVSVSS', 'polyreactivity (PSR sort gate)', 'high polyreactivity'),
  ('QVQLVESGVGLVQAGGSLRLSCAASGSTFSNNAMGWYIQAPGKERELVAVITGDGGSTYYADSVKGRFTISRDIAKNTVYLQTNSLKPEDTAVYSCNARSSRYSRFRQRFGYWGQVTQVTVSS', 'polyreactivity (PSR sort gate)', 'low polyreactivity'),
  ('QVQLLESGGGLVQAGGSLRLSCAASGSTLARYTMGWSRQAPGKERELVATIDFGGVNTYYADSVKGRFTISRDNAKNTVYLQMNSLKPEDTAVYYCAVDNPFIWFFGPDEYWGQGTQVTVSS', 'polyreactivity (PSR sort gate)', 'low polyreactivity'),
  ('QVQLVESGGGLVQAGGSLRLSCAPSGYTFIFNVMGWYRQAPGKERELVAAISYSGGSTNYADSVKGRYTTSRDNAKNTVYFQMNSLKPEDTAVYYCNARTVSRNGYQDDYWGQGTQVTVSS', 'polyreactivity (PSR sort gate)', 'low polyreactivity'),
  ('QVQLQESGGGLVQAGGSLRLRCAASRNISGSSDLGWYHQAPGKEREFVASITSGGTTYYADSVKGRFTISRDNAKNTVYLQMNSLKPEDTAVYYCAAESRYPFIYEYWGQGTQVTVSS', 'polyreactivity (PSR sort gate)', 'low polyreactivity'),
  ('QVQLVESGGGLVQAGGSLRLSCAASGFIFSRYVMGWYRQAPGKERELVAAISGSGGRTYYADSVKGRFTISRDKAKNTVYLQMNSLKPEDTAVYYCAARFLSPYHYYYWGQGTQVTVSS', 'polyreactivity (PSR sort gate)', 'high polyreactivity'),
  ('QVQLVESGGGLVQAGGSLRLSCAASGSIFDRNAMGWYRQAPGKERELVAAISVSGGSTYYADSVKGRFTISRDNAKNTVYLQMNSLKPEDTAVYYCAKAGRYANLPYGYWGQGTQVTVSS', 'polyreactivity (PSR sort gate)', 'high polyreactivity'),
  ('QVQLVESGGGLVQAGGSLRLSCAASGNTFDVYAMGWYRQAPGKEREFVARISGRVGSTYYADSVKGRFTISRDNAKYTVYLQMNSLKPEDTAVYYCNRRYQSRNMGYWGQGTQVTVSS', 'polyreactivity (PSR sort gate)', 'high polyreactivity'),
  ('QVQLVESGGGLVQAGGSLRLSFAASGYTFWYYAMGWYRQAPGKERELVARISKRGGSTYYADSVKGRFTISRDNAKNTVYLQMNSLKPEDTEVYYCAADTRQQSHSMDYWGQGTQVTVSS', 'polyreactivity (PSR sort gate)', 'low polyreactivity'),
  ('QVQLVESGGGLVQAGGSLRLSCAASGSIFFIYAMGWYRQAPGKERELVAAISWSDDSTYYADSVKGRFTISRDNAKNTVYLQMNSLKPEDTAVYYCAARYYIGYGHRTYGYDYWGQGTQVTVSS', 'polyreactivity (PSR sort gate)', 'high polyreactivity'),
  ('QVQLVESGGGLVQAGGSLRLSCAASRSIFGTYAMGWYRQAPGKERELVAAISYSGGSTYYADSVKGRFTISRDNGKYTVYLQMNSLKPEDTAVYYCNKSRFYWGYYWGQGTQVTVSS', 'polyreactivity (PSR sort gate)', 'low polyreactivity'),
  ('QVQLVESGGGLVQAGGSLRLSCAASGSTFRYNTMGWYRQAPGKEREFVAAISQSGGSTYYADSVKGRFTISRDNAKNTVYLQMNSLKPEDTAVYYCNARPFYATYRYRGYSWGQGTQVTVSS', 'polyreactivity (PSR sort gate)', 'high polyreactivity'),
  ('QVQLVESGGGLVQAGGSLRLSCAASGFTFPNYAMGWYRQAPGKERELVAAITSGGGRTNYADSVKGRFTISRDNAKNTVYLQMNSLKPEDTAVYYCAKTRVRGSEFGYWGQGTQVTVSS', 'polyreactivity (PSR sort gate)', 'low polyreactivity'),
  ('QVQLVESGGGLVQAGGSLRLSCAASGGIFRNYAMGWYRQAPGKERELVARISSAGSTNYADSVKGRFTISRDNAKNTVYLQMNSLKPEDTAVYSCAAYPYVGYVSFSAYDYWGQGTQVTVSS', 'polyreactivity (PSR sort gate)', 'low polyreactivity'),
  ('QVQLVESGGGLVQAGGSLRLSCAATGSNLIYVMGGYRQAPGKERELVASITFSGGSTYYADSVKGRFTISRDNAKNTVYLQMNRLKPEDTAVYYCAAVPLWDYKFFYYMLYDYWGQGTQVTVSS', 'polyreactivity (PSR sort gate)', 'low polyreactivity'),
  ('QVQLVESGGGLVQAGGSLRLSCAASGSTSVTNAMGWYRQAPGKEREFFATINYSGTSTYYADSVKGRFTISRDNAKNTVYLQMNSLNPEDTAVYYCYAHDFGFYRFSLPGYDYWGQGTQVTVSS', 'polyreactivity (PSR sort gate)', 'low polyreactivity'),
  ('QVQLVESGGGLVQAGGSLRLSCAASGNIFVINAMGWYRQAPGKERELVAAINWTGGNTYYADSVKGRFTISRDNAKNTFYLQMNSLKPEDTAVYYSAADRRWFVWGLGYWGQGTQVTVSS', 'polyreactivity (PSR sort gate)', 'low polyreactivity'),
  ('QVQLVESVGGLVQAGGSLRLSCAASGLIFHRYAMGWYRQAPGKERELVAAISSSGGITYYADSVKGRFTISRDNAKNTVYLQMNSLKPVDTAVYYCPADTGKGSPFSAGLGRAGDYWGHGTQVTVSS', 'polyreactivity (PSR sort gate)', 'low polyreactivity'),
  ('QVQLVESGGGLVQAGGSLRLSCAASGYIFAVYAMGWYIQAPGKEREFVAVITWRGGSTYYADSVKGRFTISRDNAKNTVYLQMNSLKPEDTAVYYCADDVYAQYDYWGQGTQVTVSS', 'polyreactivity (PSR sort gate)', 'high polyreactivity'),
  ('QVQLVESVGGLVQAGGSLRLSCAASGRIFPAYAMGWYRQAPGKERELVASIRRGGITYADSVKGRFTISRDNAKNTVYLQMKSLKPEDTAVYYCNADYRGWGYHMDYWGQGTQVTVSS', 'polyreactivity (PSR sort gate)', 'low polyreactivity');
